# System: KM12
# METHOD DESCRIPTION: NCI tumour cell line growth inhibition, 48 h
Calls of active or inactive are those of the source. No stated cut-off is given here; in the data, active = GI50 up to about 1.1 µM and inactive = higher.
Outcome codes: active, inactive

MOLECULE: O=C(NNc1ccc([N+](=O)[O-])cc1[N+](=O)[O-])/C(O)=C\C(=O)c1ccccc1
CATEGORY LABEL: inactive
//
MOLECULE: O=C1NCC2(CCNCC2)N1c1ccccc1
CATEGORY LABEL: inactive
//
MOLECULE: Cc1cccc(C(C)C)c1NC(=O)CC1C(=O)Nc2ccccc2S1(=O)=O (centres undefined)
CATEGORY LABEL: inactive
//
MOLECULE: CCN(CC)C1Oc2cc3c(cc2C(c2cccc(OC)c2O)C1C)OCO3 (centres undefined)
CATEGORY LABEL: inactive
//
MOLECULE: CSc1cc(Cl)c(C)cc1S(=O)(=O)NC(=O)NNc1cnc2ccccc2n1
CATEGORY LABEL: inactive
//
MOLECULE: O=C(O)c1c(CC(Cc2ccccc2)C(=O)O)ccc2c1CCC2 (centres undefined)
CATEGORY LABEL: inactive
//
MOLECULE: O=C(NCCN1CCOCC1)c1cn2c(ccc3sc4ccccc4c(=O)c32)n1
CATEGORY LABEL: inactive
//
MOLECULE: O=CNNC(=O)CSc1nc2ccc(I)cc2c(=O)n1Cc1ccccc1
CATEGORY LABEL: inactive
//
MOLECULE: CCCN(CCC)C(=S)N/N=C/c1ccccn1
CATEGORY LABEL: active
//
MOLECULE: N=C(N)NS(=O)(=O)c1ccc(Nc2c3ccccc3nc3c(C(=O)N4CCN(CCO)CC4)cccc23)cc1
CATEGORY LABEL: inactive
//
MOLECULE: [N-]=[N+]=NC1(N=[N+]=[N-])C(=O)NN=C(c2ccccc2)C1=O (centres undefined)
CATEGORY LABEL: inactive
//
MOLECULE: CC1=C(N2CC2)C(=O)c2ccccc2C1=O
CATEGORY LABEL: inactive
//
MOLECULE: Cc1cccc(C)c1NC(=O)C(=O)CC(=O)/C=C/c1ccccc1
CATEGORY LABEL: inactive
//
MOLECULE: C/C(=N/O)c1cccc(Nc2nc3ccc(Cl)cc3c3[nH]c4ccccc4c23)c1
CATEGORY LABEL: inactive

Value source: ChEMBL document CHEMBL1201862
